The origin of these recorded values is patent US20250019453A1.

For each record, write down the corresponding Surface Activity.
Target or system: T1, hIL2Rb-his (human, UniProt P14784 27-240)
T1 sequence: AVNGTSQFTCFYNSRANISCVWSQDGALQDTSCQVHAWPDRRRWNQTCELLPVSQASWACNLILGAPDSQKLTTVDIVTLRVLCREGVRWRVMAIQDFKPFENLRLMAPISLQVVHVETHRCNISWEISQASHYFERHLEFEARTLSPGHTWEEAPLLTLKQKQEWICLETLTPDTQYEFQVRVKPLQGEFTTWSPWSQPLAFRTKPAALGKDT
Assay summary: SPR; ratio of experimental to calculated Rmax
Text: A representative example from each hIL2Rb VHH clonotype generated as descried above was selected for evaluation of binding via SPR as follows. […] Calculated Rₘₐₓ values were generated using the equation: Rmax=Load (RU)×valency of ligand×(Molecular weight of analyte/Molecular weight of ligand). Surface activity was defined as the ratio of experimental/calculated Rmax.

# Binder, Surface Activity
measured = [
    ("hIL2Rb_VHH3 Mono-Fc VHH (Fc fusion, not shown: a dimerising Fc or GST) QVQLQESGGGLVQPGGSLKLSCAASGFRFSNYGMSWVRQAPGEGLEWVSYINGDGSRTHYADSVKGRFTISRDNAKNTLYLQLNSLKTEDTAMYYCEKGLSRDGWSLSAASRGQGTQVTVSS", "52%"),
    ("hIL2Rb_VHH5 Mono-Fc VHH (Fc fusion, not shown: a dimerising Fc or GST) QVQLQESGGGSVQVGGSLRLSCATSGDTKSIRCMGWFRQTPGKEREGIAAIDREGFATYADSVYDRFTIAQDNAQNTLYLEMNALKPEDTAMYYCAAQNMCRVVRGAMTGVDYWGKGTQVTVSS", "42%"),
    ("hIL2Rb_VHH6 Mono-Fc VHH (Fc fusion, not shown: a dimerising Fc or GST) QVQLQESGGGSVQAGGSLRLSCAASEYTASRYCMAWFRQAPGKEREGVAAIHPGGGTTYYADSVKGRFSISQDSADNTLYLQMNSLKPEDTAMYYCAAGSLWVPFGDRCAANYWGQGTQVTVSS", "53%"),
]

Please give the measured Surface Activity for this binder: hIL2Rb_VHH7 Mono-Fc VHH (Fc fusion, not shown: a dimerising Fc or GST) QVQLQESGGGSVQAGGSLRLSCAASGYEYCRIHMTWYRQGPGKEREFVSSIGSDGRKTYANSVTGRFTISRDNANHTVYLQMNSLSPEDTAMYYCKTEYLYGLGCPDGSAYWGQGTQVTVSS 43%
